- systemUnderTest: human activated protein C (human, UniProt P04070 43-197; P04070 212-461)
- assayNotes: cell-based or functional assay
Cut-off 300 s on Mean clotting time (s), FVIII-deficient plasma, APC-antibody concentration 0.5 ug/ml: below means T, at or above means F.

HAPC-14-9 (antibody, V domains shown, Whole IgG, backbone hIgG1; also called HPAC 14-9) VH: EVQLVESGGGLVQPGGSLRLSCAASGFTFSFYYLNWVRQAPGKGLEWVGDIRLKKNNYEKHYAESVKGRFTISRDDSKSITYLQMNSLRAEDTAVYYCAREGDTFDYWGQGTTVTVSS VL: DIQLTQSPSSLSASVGDRVTITCRASESVDSFGATFMHWYQQKPGKAPKLLIYLASRLGSGVPSRFSGSGSGTDFTLTISSLQPEDFATYYCQQNNEDPYTFGQGTKLEIK :: T
HAPC-14-4 (antibody, V domains shown, Whole IgG, backbone hIgG1; also called HPAC 14-4) VH: EVQLVESGGGLVQPGGSLRLSCAASGFTFSFYYLNWVRQAPGKGLEWVGDIRLKSNNYEKHYAESVKGRFTISRDDSKSITYLQMNSLRAEDTAVYYCAREGDYFDYWGQGTTVTVSS VL: DIQLTQSPSSLSASVGDRVTITCRASESVDSFGATFMHWYQQKPGKAPKLLIYLASRLGSGVPSRFSGSGSGTDFTLTISSLQPEDFATYYCVQNNEDPYTFGQGTKLEIK :: T
Humanized antibody 13 (HAPC-13) (antibody, V domains shown, also called Humab001-13; NO; 13 antibody) VH: EVQLVESGGGLVQPGGSLRLSCAASGFTFSNYYLNWVRQAPGKGLEWVGDIRLKSNNYEKHYAESVKGRFTISRDDSKSITYLQMNSLRAEDTAVYYCAREGDYFDYWGQGTTVTVSS VL: DIQMTQSPSSLSASVGDRVTITCRASESVDSFGATFMHWYQQKPGKAPKLLIYLASNLESGVPSRFSGSGSGTDFTLTISSLQPEDFATYYCQQNNEDPYTFGQGTKLEIK :: F
HAPC-14-3 (antibody, V domains shown, Whole IgG, backbone hIgG1; also called HPAC 14-3; No. 3) VH: EVQLVESGGGLVQPGGSLRLSCAASGFTFSFYYLNWVRQAPGKGLEWVGDIRLKKNNYEKHYAESVKGRFTISRDDSKSITYLQMNSLRAEDTAVYYCAREGDYFDYWGQGTTVTVSS VL: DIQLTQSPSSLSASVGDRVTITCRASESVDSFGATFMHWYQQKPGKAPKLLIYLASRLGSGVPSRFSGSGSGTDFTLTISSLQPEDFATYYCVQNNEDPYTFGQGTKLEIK :: T
HAPC-14-5 (antibody, V domains shown, Whole IgG, backbone hIgG1; also called HPAC 14-5) VH: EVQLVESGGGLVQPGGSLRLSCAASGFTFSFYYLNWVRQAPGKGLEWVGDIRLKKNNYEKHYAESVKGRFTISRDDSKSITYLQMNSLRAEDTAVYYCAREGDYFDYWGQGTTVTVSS VL: DIQLTQSPSSLSASVGDRVTITCRASESVDSFGATFMHWYQQKPGKAPKLLIYLASWLGSGVPSRFSGSGSGTDFTLTISSLQPEDFATYYCVQNNEDPYTFGQGTKLEIK :: T
HAPC-14-2 (antibody, V domains shown, Whole IgG, backbone hIgG1; also called HPAC 14-2) VH: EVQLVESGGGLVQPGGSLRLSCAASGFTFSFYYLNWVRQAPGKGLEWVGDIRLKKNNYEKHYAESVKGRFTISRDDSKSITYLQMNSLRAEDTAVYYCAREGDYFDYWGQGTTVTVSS VL: DIQLTQSPSSLSASVGDRVTITCRASESVDSFGATFMHWYQQKPGKAPKLLIYLASWLESGVPSRFSGSGSGTDFTLTISSLQPEDFATYYCVQNNEDPYTFGQGTKLEIK :: F
HAPC-14-1 (antibody, V domains shown, Whole IgG, backbone hIgG1; also called HPAC14-1) VH: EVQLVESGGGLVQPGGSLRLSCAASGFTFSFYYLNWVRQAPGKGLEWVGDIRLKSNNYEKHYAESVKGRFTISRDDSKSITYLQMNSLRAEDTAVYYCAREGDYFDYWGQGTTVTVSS VL: DIQLTQSPSSLSASVGDRVTITCRASESVDSFGATFMHWYQQKPGKAPKLLIYLASWLGSGVPSRFSGSGSGTDFTLTISSLQPEDFATYYCQQNNEDPYTFGQGTKLEIK :: F
